- system: Cellular tumor antigen p53 (Homo sapiens) (UniProt P04637)
- Sequence (P04637 whole entry, looked up): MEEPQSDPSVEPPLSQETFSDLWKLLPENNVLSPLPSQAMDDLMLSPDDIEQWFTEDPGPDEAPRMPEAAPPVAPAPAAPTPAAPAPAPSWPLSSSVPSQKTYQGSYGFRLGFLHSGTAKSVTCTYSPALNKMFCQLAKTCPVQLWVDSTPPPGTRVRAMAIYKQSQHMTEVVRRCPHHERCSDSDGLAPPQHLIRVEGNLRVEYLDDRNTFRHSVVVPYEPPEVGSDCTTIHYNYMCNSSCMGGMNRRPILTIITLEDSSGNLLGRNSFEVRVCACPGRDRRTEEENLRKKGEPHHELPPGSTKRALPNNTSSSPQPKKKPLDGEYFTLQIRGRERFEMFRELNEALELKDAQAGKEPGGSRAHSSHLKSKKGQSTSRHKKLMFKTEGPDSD
- test: Primary qHTS for small molecule compounds that upregulate eGFP-tagged delta133p53alpha (in N-terminal) cells. (AID 2060322);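 note: cells pre-induced with doxycycline then dosed without doxycycline; series mostly up to about 56 µM; 0% = DMSO vehicle and 100% = reference activator; nearly all actives have a fitted effect of over 75% in size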
- appliedConditions: NCI-H358 eGFP-delta133p53alpha fluorescence, 24 h; hits give high values
Records with an inconclusive call do not appear.
Parameter activation: see the listing below.
readoutLabel: activation (%)

INSERT INTO results (molecule, recordednumber) VALUES
  ('CO[C@H]1O[C@@H]2O[C@@]3(C)CCC4[C@H](C)CCC([C@H]1C)[C@]42OO3 (stereo partly drawn)', 11.7),
  ('CC(C)NCC(O)c1ccc(NS(C)(=O)=O)cc1 (stereo not drawn)', -72.6),
  ('CCCCCCCCCCCCCCCCCC(=O)O', 24.3),
  ('N#Cc1ccc(NC(=O)Nc2ccccc2Br)c2n[nH]nc12', -2.35),
  ('CS(=O)(=O)NCC1CCC(Nc2nc3c(s2)CCSc2ccccc2-3)CC1 (stereo not drawn)', -6.21),
  ('CC(C)(C)NCC(O)COc1cccc2c1C[C@H](O)[C@H](O)C2 (stereo partly drawn)', 0),
  ('C[C@@H]1O[C@@H](O[C@H]2[C@H](OC(=O)[C@]34CCC(C)(C)C[C@H]3C3=CCC5[C@@]6(C)C[C@H](O)[C@H](O[C@@H]7O[C@H](CO)[C@@H](O)[C@H](O)[C@H]7O)[C@@](C)(CO)C6[C@H](O)C[C@@]5(C)[C@]3(C)CC4)OC[C@H](O)[C@@H]2O)[C@H](O)[C@H](O)[C@H]1O[C@@H]1OC[C@@H](O)[C@H](O[C@@H]2OC[C@](O)(CO)[C@H]2O)[C@H]1O (stereo partly drawn)', 5.36),
  ('CCC(C)C(=O)O[C@H]1[C@@H](O[C@H]2O[C@H](CO)[C@@H](O)[C@H](O)[C@H]2O)O[C@H](CO)[C@@H](O)[C@@H]1O (stereo partly drawn)', 13.7);
